Values from ChEMBL document CHEMBL1671677

# Tested on: Acinetobacter baumannii
# protocol description: Ratio of MIC for Acinetobacter baumannii AC0037 to MIC for abeS-deficient Acinetobacter baumannii AC0037
# Format: functional
Record form. Attribute: Ratio. Fill in for each entry.
The response must contain the number and no unit.

Need Ratio of COc1cc(Cc2cnc(N)nc2N)cc(OC)c1OC , thanks.
1

// repeat for CN(C)[C@@H]1C(O)=C(C(N)=O)C(=O)[C@@]2(O)C(O)=C3C(=O)c4c(O)cccc4[C@@](C)(O)[C@H]3C[C@@H]12 and report
1

// repeat for O=C(N[C@H](CO)[C@H](O)c1ccc([N+](=O)[O-])cc1)C(Cl)Cl and report
4

// repeat for N=C(N)c1ccc(-c2cc3ccc(C(=N)N)cc3[nH]2)cc1 and report
4

###

# System: Escherichia coli
# protocol description: Antibacterial activity against Escherichia coli KAM32 harboring plasmid pUC18 by CLSI broth microdilution method
# Type: functional
readout label: log10 MIC (log10 of the value in µg/mL)
Plainly stated, the numbers are log10 of MIC given in µg/mL.

Need log10 MIC of CCn1cc(C(=O)O)c(=O)c2ccc(C)nc21 , thanks.
0.00

// repeat for COC(=O)c1ccccc1-c1c2ccc(=N)cc-2oc2cc(N)ccc12.Cl and report
0.90

// repeat for C[C@H](CCC(=O)O)[C@H]1CC[C@H]2[C@@H]3CC[C@@H]4C[C@H](O)CC[C@]4(C)[C@H]3C[C@H](O)[C@]12C and report
2.10

// repeat for CO[C@@H]1[C@@H](OC(N)=O)[C@@H](O)[C@H](Oc2ccc3c(O)c(NC(=O)c4ccc(O)c(CC=C(C)C)c4)c(=O)oc3c2C)OC1(C)C and report
0.60

// repeat for CC[C@H]1OC(=O)[C@H](C)[C@@H](O[C@H]2C[C@@](C)(OC)[C@@H](O)[C@H](C)O2)[C@H](C)[C@@H](O[C@@H]2O[C@H](C)C[C@H](N(C)C)[C@H]2O)[C@](C)(O)C[C@@H](C)C(=O)[C@H](C)[C@@H](O)[C@]1(C)O and report
0.60

// repeat for CN(C)c1ccc2cc3ccc(N(C)C)cc3nc2c1 and report
1.20

###

# System: Acinetobacter baumannii
# protocol description: Ratio of MIC for Acinetobacter baumannii AC0037 to MIC for abeS-deficient Acinetobacter baumannii AC0037
# Format: functional
readout label: Ratio

Need Ratio of CCn1cc(C(=O)O)c(=O)c2ccc(C)nc21 [NALIDIXIC ACID] , thanks.
2

// repeat for CCBr [BROMOETHANE] and report
8

// repeat for C[C@H](CCC(=O)O)[C@H]1CC[C@H]2[C@@H]3CC[C@@H]4C[C@H](O)CC[C@]4(C)[C@H]3C[C@H](O)[C@]12C [DEOXYCHOLIC ACID] and report
>16

// repeat for CC[C@H]1OC(=O)[C@H](C)[C@@H](O[C@H]2C[C@@](C)(OC)[C@@H](O)[C@H](C)O2)[C@H](C)[C@@H](O[C@@H]2O[C@H](C)C[C@H](N(C)C)[C@H]2O)[C@](C)(O)C[C@@H](C)C(=O)[C@H](C)[C@@H](O)[C@]1(C)O [ERYTHROMYCIN] and report
8

// repeat for CCn1cc(C(=O)O)c(=O)c2cc(F)c(N3CCNCC3)cc21 [NORFLOXACIN] and report
2

// repeat for NCC[C@H](O)C(=O)N[C@@H]1C[C@H](N)[C@@H](O[C@H]2O[C@H](CN)[C@@H](O)[C@H](O)[C@H]2O)[C@H](O)[C@H]1O[C@H]1O[C@H](CO)[C@@H](O)[C@H](N)[C@H]1O [AMIKACIN] and report
1

// repeat for N=C(NCCCCCCNC(=N)NC(=N)Nc1ccc(Cl)cc1)NC(=N)Nc1ccc(Cl)cc1 [CHLORHEXIDINE] and report
2

// repeat for [Cl-].c1ccc([P+](c2ccccc2)(c2ccccc2)c2ccccc2)cc1 [TETRAPHENYLPHOSPHONIUM CHLORIDE] and report
5

// repeat for COC(=O)c1ccccc1-c1c2ccc(=N)cc-2oc2cc(N)ccc12.Cl [RHODAMINE123] and report
2

// repeat for C[n+]1ccc(-c2cc[n+](C)cc2)cc1.[Cl-].[Cl-] [PARAQUAT DICHLORIDE] and report
2

// repeat for CN(C)c1ccc2cc3ccc(N(C)C)cc3nc2c1 [ACRIDINE ORANGE] and report
4

// repeat for CO[C@@H]1[C@@H](OC(N)=O)[C@@H](O)[C@H](Oc2ccc3c(O)c(NC(=O)c4ccc(O)c(CC=C(C)C)c4)c(=O)oc3c2C)OC1(C)C [NOVOBIOCIN] and report
3

// repeat for CCCCCCCCCCCCOS(=O)(=O)[O-].[Na+] [SODIUM LAURYL SULFATE] and report
>16

###

Record form. Attribute: MIC. Fill in for each entry.
# System: Acinetobacter baumannii
# protocol description: Antibacterial activity against Acinetobacter baumannii AC0037 by CLSI broth microdilution method
# Format: functional
Numbers only; they are read as µg/mL.

Need MIC of CN(C)[C@@H]1C(O)=C(C(N)=O)C(=O)[C@@]2(O)C(O)=C3C(=O)c4c(O)cccc4[C@@](C)(O)[C@H]3C[C@@H]12 , thanks.
64

// repeat for COC(=O)c1ccccc1-c1c2ccc(=N)cc-2oc2cc(N)ccc12.Cl and report
128

// repeat for COc1cc(Cc2cnc(N)nc2N)cc(OC)c1OC and report
64

// repeat for C[n+]1ccc(-c2cc[n+](C)cc2)cc1.[Cl-].[Cl-] [PARAQUAT DICHLORIDE] and report
800

// repeat for CO[C@@H]1[C@@H](OC(N)=O)[C@@H](O)[C@H](Oc2ccc3c(O)c(NC(=O)c4ccc(O)c(CC=C(C)C)c4)c(=O)oc3c2C)OC1(C)C and report
120

// repeat for CCn1cc(C(=O)O)c(=O)c2ccc(C)nc21 and report
256

// repeat for NCC[C@H](O)C(=O)N[C@@H]1C[C@H](N)[C@@H](O[C@H]2O[C@H](CN)[C@@H](O)[C@H](O)[C@H]2O)[C@H](O)[C@H]1O[C@H]1O[C@H](CO)[C@@H](O)[C@H](N)[C@H]1O and report
256
